# assay.comment: Cytotoxicity against U937 cell
# Assay type: cell-based
# details: human, U937 cells

- molecule: "CC1=C[C@]23C(=O)[C@@H](C=C(CO)[C@@H](O)[C@]2(O)[C@H]1OC(=O)c1ccc2ccccc2c1)[C@H]1[C@@H](C[C@H]3C)C1(C)C [Compound 23, 3-(2-Naphthoyl)ingenol]"
  CC50 at 3 days: "> 2000 nM"

###

SI, selectivity index, calculated as CC50/EC50 values for the molecules below.
# Tested on: HIV-1 NL4-3 Nanoluc-sec
# Format: cell-based
# details: CC50 (MT4) / EC50 (HIV-1 in MT4)
readout.name: SI, selectivity index, calculated as CC50/EC50

- molecule: "COc1ccc(C(=O)O[C@H]2C(C)=C[C@]34C(=O)[C@@H](C=C(C)[C@@H](O)[C@]23O)[C@H]2[C@@H](C[C@H]4C)C2(C)C)cc1 [Compound 12a, 3-(p-Methoxybenzoyl)-20-deoxyingenol]"
  result: ">64"
- molecule: "CC1=C[C@@H]2C(=O)[C@]3(C=C(C)[C@H](OC(=O)c4ccc5ccccc5c4)[C@@]3(O)[C@@H]1O)[C@H](C)C[C@@H]1[C@H]2C1(C)C [Compound 14a, 3-(2-Naphthoyl)-20-deoxyingenol]"
  result: ">543"
- molecule: "CC(=O)OCC1=C[C@@H]2C(=O)[C@]3(C=C(C)[C@H](O)[C@@]3(O)[C@@H]1O)[C@H](C)C[C@@H]1[C@H]2C1(C)C [Compound 4, ingenol monoacetate]"
  result: ">10"

###

# System: HIV-1 NL4-3 Nanoluc-sec
# Assay type: cell-based
# details: CC50 (MT4) / EC50 (HIV-1 in MT4)
SI, selectivity index, calculated as CC50/EC50 values for the molecules below.
readout.name: SI, selectivity index, calculated as CC50/EC50

- molecule: "CC1=C[C@@H]2C(=O)[C@]3(C=C(C)[C@H](O)[C@@]3(O)[C@@H]1OC(=O)c1ccccc1)[C@H](C)C[C@@H]1[C@H]2C1(C)C"
  result: ">216"
- molecule: "CC(=O)O[C@H]1C(C)=C[C@]23C(=O)[C@@H](C=C(C)[C@@H](OC(=O)c4ccccc4)[C@]12O)[C@H]1[C@@H](C[C@H]3C)C1(C)C"
  result: ">23"
- molecule: "CC1=C[C@@H]2C(=O)[C@]3(C=C(C)[C@H](OC(=O)/C=C/c4ccccc4)[C@@]3(O)[C@@H]1O)[C@H](C)C[C@@H]1[C@H]2C1(C)C [Compound 13a, 3-(trans-Cinnamoyl)-20-deoxyingenol]"
  result: ">45"
- molecule: "C/C=C(/C)C(=O)O[C@H]1C(C)=C[C@]23C(=O)[C@@H](C=C(C)[C@@H](O)[C@]12O)[C@H]1[C@@H](C[C@H]3C)C1(C)C"
  result: ">22.8"
- molecule: "CCCCCCCCCCCC(=O)O[C@@]12C[C@@H](C)[C@]34C=C(C)[C@H](O)[C@@]3(O)[C@H](O)C(CO)=C[C@H](C4=O)[C@@H]1C2(C)C [Compound 11, 13-oxyingenol-13-dodecanoate]"
  result: ">273"

###

# Tested on: HIV-1 NL4-3 Nanoluc-sec
# Type: cell-based
# details: CC50 (MT4) / EC50 (HIV-1 in MT4)
SI, selectivity index, calculated as CC50/EC50 values for the molecules below.
readout.name: SI, selectivity index, calculated as CC50/EC50

- molecule: "C/C=C/C(=O)O[C@@H]1C(C)=C[C@@H]2C(=O)[C@]3(C=C(C)[C@H](O)[C@@]13O)[C@H](C)C[C@@H]1[C@H]2C1(C)C [Compound 15b, 5-crotonoyl-20-deoxyingenol]"
  result: ">16"
- molecule: "CCCCCCCC(=O)O[C@H]1C(C)=C[C@]23C(=O)[C@@H](C=C(C)[C@@H](O)[C@]12O)[C@H]1[C@@H](C[C@H]3C)C1(C)C"
  result: ">59.9"
- molecule: "CC1=C[C@]23C(=O)[C@@H](C=C(CO)[C@@H](O)[C@]2(O)[C@H]1OC(=O)c1ccc2ccccc2c1)[C@H]1[C@@H](C[C@H]3C)C1(C)C"
  result: ">6153"
- molecule: "C/C=C(\\C)C(=O)O[C@H]1C(C)=C[C@]23C(=O)[C@@H](C=C(C)[C@@H](O)[C@]12O)[C@H]1[C@@H](C[C@H]3C)C1(C)C"
  result: ">46"
- molecule: "C/C=C(/C)C(=O)O[C@H]1C(C)=C[C@]23C(=O)[C@@H](C=C(CO)[C@@H](O)[C@]12O)[C@H]1[C@@H](C[C@H]3C)C1(C)C"
  result: ">2067"

Cited source for all entries: paper PMC6217806
